Entries and their measured TGI follow.
Tested on: SN12C renal
Test: NCI tumour cell line growth inhibition, 48 h
Endpoint Label: TGI

>>> val("O=c1c2sccc2n(CC2COc3ccccc3O2)c(=O)n1O (stereo not drawn)")
"> 100 µM"
>>> val("O=c1c2sc(=S)n(-c3ccc(F)cc3)c2ncn1/N=C/c1ccc(F)cc1F")
"> 100 µM"
>>> val("O=C(/C=C/c1ccc(Cl)cc1)c1ccc(Nc2ccnc3cc(Cl)ccc23)cc1")
"> 100 µM"
>>> val("CO[C@H]1/C=C(/C)CCC[C@H](C)[C@H](O)[C@@H](C)C(=O)C(C)(C)[C@@H](O)CC(=O)O[C@@H]1/C(C)=C/c1csc(C)n1")
"> 100 µM"
>>> val("CC(C)OP(=O)(OC(C)C)C(=NCCN=C(NNc1ccc([N+](=O)[O-])cc1)P(=O)(OC(C)C)OC(C)C)NNc1ccc([N+](=O)[O-])cc1")
"> 100 µM"
>>> val("CCOC(=O)CC(=O)ON(C)C(C)=O")
"> 100 µM"
>>> val("CC1=NN(c2cccc(Cl)c2)C2(C1=C/C=C/c1ccccc1)C(Cl)C(=O)N2c1nc2ccccc2s1 (stereo not drawn)")
"> 100 µM"
>>> val("C[Si](C)(C)C1(Sc2ccccc2)SCCCS1")
"> 100 µM"
>>> val("COc1ccc([C@H]2[C@@H](F)C(=O)N2c2cc(OC)c(OC)c(OC)c2)cc1F")
"> 100 µM"
>>> val("CCCSCC(P(=O)(O)O)P(=O)(O)O")
"> 100 µM"
>>> val("Cc1cc(C(=O)CCCCOc2ccc(C3=NCCO3)cc2)c(C)n1C")
"> 100 µM"
>>> val("O=C1NCCN1/N=C/c1c(Cl)n(-c2ccccc2)c2ccccc12")
"40.2 µM"
>>> val("CC(C)(C)OC(=O)N[C@H]1CC2(C=C(Cl)C(=O)C(Cl)=C2)OC1=O")
"33.3 µM"
>>> val("O=C(Nc1ccc(Cl)cc1)c1cccc(NC2=C(Cl)C(=O)N(Cc3ccccc3)C2=O)c1")
"24.2 µM"
>>> val("COc1cc2c(c(OC)c1OC)-c1ccc(OC)c(=O)cc1C(NC(=O)c1ccc(N=[N+]=[N-])cc1)CC2 (stereo not drawn)")
"> 41.9 µM"
>>> val("NS(=O)(=O)c1cc2c(cc1Cl)NC(CCC(=O)O)=NS2(=O)=O")
"> 100 µM"
>>> val("C=C(Br)C(C)(Br)CCC(Br)C(C)(C)Cl (stereo not drawn)")
"39.5 µM"
>>> val("CSC(=S)N/N=C(\\C)c1ccc(S(=O)(=O)N(C)c2ccccc2)cc1")
"> 100 µM"

###

System: KM12 colon
Assay: NCI tumour cell line growth inhibition, 48 h
Entries and their measured TGI follow.
Endpoint Label: TGI

>>> val("O=C(O)CCC(=O)OC1N=C(c2ccccc2Cl)c2cc([N+](=O)[O-])ccc2NC1=O (stereo not given)")
"> 100 µM"
>>> val("CCOC(=O)c1ccc(NCC#CCN2CCOCC2)cc1")
"> 100 µM"
>>> val("ClCc1cccc(Cn2cnc3ncnc(Cl)c32)c1")
"3.32 µM"
>>> val("O=C(Nc1ccc(Cl)cc1)c1cccc(NC2=C(Cl)C(=O)N(Cc3ccccc3)C2=O)c1")
"> 100 µM"
>>> val("CCN(CC)CCn1c(=O)c2cccnc2n2c3c(=O)n(C)c(=O)n(C)c3nc12")
"> 100 µM"
>>> val("COc1ncnc(NS(=O)(=O)c2ccc(N=C3C(=O)N(CN4CCN(c5c(F)cc6c(=O)c(C(=O)O)cn(C7CC7)c6c5OC)CC4C)c4ccc(Cl)cc43)cc2)c1OC (stereo not given)")
"> 50 µM"
>>> val("CC1=CC(O)(c2ccc(-c3ccccc3Cl)cc2)OC1=O (stereo not given)")
"> 100 µM"
>>> val("O=C(CC(C(=O)c1ccsc1)c1ccc2c(c1)OCO2)c1ccccc1 (stereo not given)")
"> 100 µM"
>>> val("N#CC12C(=O)N=C(N)C1(C#N)C(c1ccco1)NC1=C2CCCC1 (stereo not given)")
"> 100 µM"
>>> val("Cc1cc(I)cc(CN(C)CCCN2CCCCC2)c1O")
"39.6 µM"

###

Test system: UO-31 renal
Assay: NCI tumour cell line growth inhibition, 48 h
Entries and their measured TGI follow.
Endpoint Label: TGI

>>> val("CCN(CC)CCn1c(=O)c2cccnc2n2c3c(=O)n(C)c(=O)n(C)c3nc12")
"> 100 µM"
>>> val("O=[N+]([O-])C(/C=C(\\Cl)n1nnc2ccccc21)=C(/Cl)n1nnc2ccccc21")
"> 100 µM"
>>> val("COc1ccc2c(c1)OCC1Cc3ccccc3OC21 (stereo not drawn)")
"> 100 µM"

###

Test system: SW-620 colon
Experiment: NCI tumour cell line growth inhibition, 48 h
Entries and their measured GI50 follow.
Endpoint Label: GI50

>>> val("OCC#Cc1ccccc1C#Cc1ccccc1")
"20000 nM"
>>> val("CN1CCN(CCCn2c(=O)c3sc4ncccc4c3n3nnc(-c4ccccc4)c23)CC1")
"5340 nM"
>>> val("COc1ccc(-c2nnc(COc3ccc(NC(=O)Nc4cc(C(F)(F)F)cc(C(F)(F)F)c4)cc3F)o2)cc1")
"2190 nM"
>>> val("CC(C)[C@H]1COC(=O)N1[C@@H]1C(=O)N([C@@H](CCC(=O)N2CCN(C3CCCC3)CC2)C(=O)N[C@@H]2CCCc3ccccc32)[C@@H]1/C=C/c1cccc(Br)c1")
"1950 nM"
>>> val("Cn1cnc([N+](=O)[O-])c1S(=O)(=O)Oc1cccc2ccccc12")
"1360 nM"
>>> val("Cc1cc(-c2ccc3nc(C4CCOCC4)n(CCOC(F)(F)F)c3c2)cn(C)c1=O")
"1790 nM"

###

Tested on: CCRF-CEM leukemia
Assay: NCI tumour cell line growth inhibition, 48 h
Endpoint Label: GI50

>>> val("O=C(CSc1ccc(Cl)cc1)Nc1ccc(-c2nc3ccccc3s2)c(Cl)c1")
"3.58 µM"
>>> val("CC[C@H](Nc1ncnc2nc[nH]c12)c1oc2ccccc2c(=O)c1-c1cccc(F)c1")
"23.3 µM"
>>> val("CN1CCN(CCCn2c(=O)c3sc4ncccc4c3n3nnc(-c4ccccc4)c23)CC1")
"1.55 µM"

###

System: OVCAR-8 ovarian
Assay: NCI tumour cell line growth inhibition, 48 h
Endpoint Label: TGI

>>> val("C=C1NC(=O)C(C(C)CC)NC(=O)C2CSCC(NC(=O)CCC(=O)O)C(=O)NC(Cc3ccccc3)C(=O)NC(C)C(=O)NC(CC(C)CC)C(=O)NC(C(=O)NC(Cc3ccccc3)C(=O)N3CCCC3C(=O)N2)C(C)OC(=O)C(CO)NC(=O)C(C(O)COC)N(C)C(=O)C(C(C)C)NC(=O)C(CC(C)CC)NC1=O (centres undefined)")
"> 6 µM"
>>> val("COc1ccc2c(C)cc(=O)oc2c1OC")
"> 100 µM"
>>> val("N#CC12C(=O)N=C(N)C1(C#N)C(c1ccco1)NC1=C2CCCC1 (centres undefined)")
"> 100 µM"
>>> val("COc1ccc(-c2nc(SCC(=O)N/N=C/c3ccc(N(C)C)cc3)[nH]c2-c2ccc(OC)cc2)cc1")
"> 100 µM"
>>> val("CCOC(=O)c1cc2nc3ccccc3c(=O)n2c2ccccc12")
"> 10 µM"
>>> val("COc1ccc2c(c1)/C(=C\\c1c(Cl)nc3sc(C)cn13)C(=O)N2")
"15.1 µM"
>>> val("Cc1ccccc1S(=O)(=O)OC1NS(=O)(=O)c2ccccc21 (centres undefined)")
"> 100 µM"
>>> val("COc1ccc([C@H]2[C@@H](F)C(=O)N2c2cc(OC)c(OC)c(OC)c2)cc1F")
"> 100 µM"
>>> val("Cc1ccc(NC(=O)c2cc3cc(N=Nc4ccccc4C(=O)O)ccc3oc2=O)cc1")
"> 100 µM"
>>> val("CC(=O)OC1COC(n2ccc3cc(Br)c([N+](=O)[O-])cc32)C(OC(C)=O)C1OC(C)=O (centres undefined)")
"82.1 µM"
>>> val("Cc1cc2c3c(nc4ccccc42)C(=O)c2ccccc2-c3n1")
"34.8 µM"
>>> val("CC1=CC(O)(c2ccc(-c3ccccc3Cl)cc2)OC1=O (centres undefined)")
"> 100 µM"
>>> val("COc1ccc(NC(=O)CC(=O)N2N=C(N3c4ccccc4Sc4ccccc43)CC2c2ccccc2)cc1 (centres undefined)")
"> 100 µM"
>>> val("Cc1cn(C2CC(O)C(CO)O2)c(=O)[nH]c1=O (centres undefined)")
"4960 µM"

###

Tested on: SK-MEL-28 melanoma
Experiment: NCI tumour cell line growth inhibition, 48 h
Endpoint Label: TGI

>>> val("NS(=O)(=O)c1cc(Cl)c(NC(=S)NC(=O)Nc2ccc(Cl)c(Cl)c2)c(Cl)c1")
"> 100 µM"
>>> val("COc1ccc(-c2nnc(COc3ccc(C(=O)/C=C/c4ccco4)cc3)o2)cc1")
"5.41 µM"
>>> val("CCOC(=O)C(=C=C=C(c1ccccc1)c1ccccc1)C(=O)OCC")
"36.8 µM"
>>> val("CSC(=S)N/N=C(\\C)c1ccc(S(=O)(=O)N(C)c2ccccc2)cc1")
"> 100 µM"
>>> val("c1c[nH]c(-c2ccc(-c3ccc[nH]3)c3nsnc23)c1")
"> 100 µM"
>>> val("CCCCCCOc1ccc(C(=O)NOC)cc1")
"> 100 µM"
>>> val("CCN(CC)CCn1c(=O)c2cccnc2n2c3c(=O)n(C)c(=O)n(C)c3nc12")
"> 100 µM"
>>> val("C[C@@H]1CCC2[C@@H](C)[C@@H](OCC(CO[C@H]3OC4O[C@@]5(C)CC[C@H]6[C@H](C)CCC([C@H]3C)[C@@]46OO5)OC(=O)CCC(=O)O)OC3O[C@@]4(C)CC[C@@H]1[C@]32OO4 (stereo partly specified)")
"> 47.4 µM"
>>> val("O=S(=O)(CCn1c(Sc2ccccc2)c(Sc2ccccc2)c2ccccc21)c1ccccc1")
"> 100 µM"
>>> val("COc1ccc(-c2nc(SCC(=O)N/N=C/c3ccc(N(C)C)cc3)[nH]c2-c2ccc(OC)cc2)cc1")
"> 100 µM"
>>> val("C=C1NC(=O)C(C(C)CC)NC(=O)C2CSCC(NC(=O)CCC(=O)O)C(=O)NC(Cc3ccccc3)C(=O)NC(C)C(=O)NC(CC(C)CC)C(=O)NC(C(=O)NC(Cc3ccccc3)C(=O)N3CCCC3C(=O)N2)C(C)OC(=O)C(CO)NC(=O)C(C(O)COC)N(C)C(=O)C(C(C)C)NC(=O)C(CC(C)CC)NC1=O (stereo unspecified)")
"> 6 µM"
>>> val("COc1cc2c3c(n(C)c(=O)c2cc1OC)-c1cc2c(cc1/C3=C\\CCCN)OCO2")
"> 100 µM"
>>> val("COc1cc(OC)cc(-c2cc(=O)c3c(OC)c(OC)c(OC)c(OC)c3o2)c1")
"> 100 µM"
>>> val("CCC1(CC)C(=O)NN(C(=O)c2ccccc2)C1=O")
"> 100 µM"
>>> val("CCCCCCCCC/C=C1\\CCC(CN2CCOCC2)C1=O (stereo unspecified)")
"9.2 µM"
>>> val("Cc1c(S(=O)(=O)c2ccccc2)c(N)n(CCN(C)C)c1C")
"> 100 µM"
